Exercise: for every item that follows, state its recorded GI50.
# System: SK-MEL-28
# assay.remarks: NCI tumour cell line growth inhibition, 48 h
The source made the active and inactive calls. Rule as the data show it: active = GI50 up to about 1.1 µM and inactive = higher.

Asked: Give a short answer stating reported GI50 for `O=C1c2ccccc2CN1c1ccc(O)cc1` .
Given back: > 100 µM (inactive)

Asked: Give a short answer stating reported GI50 for `CC(C)(C)C(=O)CP(=O)(O)O` .
Given back: > 100 µM (inactive)

Asked: Give a short answer stating reported GI50 for `CC(C)=C[C@@H]1O[C@H](O)[C@@H]([C@H]2CC[C@@]3(C)[C@@H]4CC[C@H]5C(C)(C)C(=O)CC[C@@]56C[C@@]46CC[C@]23C)[C@@H]1O` .
Given back: 22.8 µM (inactive)

Asked: Give a short answer stating reported GI50 for `Cc1cc(-c2nc3c(O)cccc3s2)ccc1N` .
Given back: 57.9 µM (inactive)

Asked: Give a short answer stating reported GI50 for `Cc1cc2c(cn1)C(=O)OCC2` .
Given back: > 100 µM (inactive)

Asked: Give a short answer stating reported GI50 for `O=C1NCC2(CCN(CCCC3(c4ccc(F)cc4)OCCO3)CC2)N1c1ccccc1` .
Given back: > 100 µM (inactive)

Asked: Give a short answer stating reported GI50 for `O=C1OCC2=Nc3cccc4cccc(c34)N12` .
Given back: > 100 µM (inactive)

Asked: Give a short answer stating reported GI50 for `CCN(CC)c1nc(NC2CCCCC2)c2nc(N(CC)CC)nc(NC3CCCCC3)c2n1` .
Given back: > 100 µM (inactive)

Asked: Give a short answer stating reported GI50 for `COC1=NCc2ccccc2-c2ccccc21` .
Given back: > 100 µM (inactive)

Asked: Give a short answer stating reported GI50 for C[C@H](CCc1nc(C#N)c(N)o1)[C@H]1CC[C@H]2[C@@H]3CCC4C[C@@H](O)CC[C@]4(C)[C@H]3C[C@@H](O)[C@]12C (stereo partly specified) .
Given back: 13.1 µM (inactive)

Asked: Give a short answer stating reported GI50 for `COC(=O)[C@H]1C=C[C@@H](C)n2c(=O)c3cc4ccccc4cc3c(=O)n21` .
Given back: > 100 µM (inactive)

Asked: Give a short answer stating reported GI50 for `CC(C)(Cc1ccccc1)N1C(=O)N1C(C)(C)Cc1ccccc1` .
Given back: > 100 µM (inactive)

Asked: Give a short answer stating reported GI50 for `CN(C)NC(=O)NC12CC3CC(CC(C3)C1)C2` .
Given back: > 10 µM (inactive)

Asked: Give a short answer stating reported GI50 for `COc1ccc2[nH]c3c(C)c4cc[n+](C)cc4c(C)c3c2c1` .
Given back: 1.32 µM (inactive)

Asked: Give a short answer stating reported GI50 for COC(=O)C1=C(c2cc(OC)c(OC)c(OC)c2)OC(c2ccc(OC)c(OC)c2)C1 (stereo unspecified) .
Given back: 79.8 µM (inactive)

Asked: Give a short answer stating reported GI50 for COC(=O)c1ccccc1NC(=O)C(=O)CC(=O)CC(c1ccccc1)c1c(O)c2ccccc2oc1=O (stereo unspecified) .
Given back: > 100 µM (inactive)

Asked: Give a short answer stating reported GI50 for `N[C@H](Cc1ccc2oc3cc(=O)c4ccccc4c-3nc2c1)C(=O)O` .
Given back: > 100 µM (inactive)

Asked: Give a short answer stating reported GI50 for `C=CC(=O)NCCC(=O)OCn1cc(F)c(=O)[nH]c1=O` .
Given back: 32.2 µM (inactive)

Asked: Give a short answer stating reported GI50 for `O=C(/C=C/c1ccccc1O)CC(=O)/C=C/c1ccccc1O` .
Given back: 12.8 µM (inactive)

Asked: Give a short answer stating reported GI50 for `N#CC(C#N)=C1/C(=C/C=C/C=C/C=C/c2ccc(N3CCCCC3)s2)S(=O)(=O)c2ccccc21` .
Given back: > 100 µM (inactive)

Asked: Give a short answer stating reported GI50 for `C=CCc1oc(C)nc1CCCC` .
Given back: > 100 µM (inactive)

###

# System: SK-MEL-5
# assay.remarks: NCI tumour cell line growth inhibition, 48 h
The source made the active and inactive calls. Rule as the data show it: active = GI50 up to about 1.1 µM and inactive = higher. Non-standard residues stand in square brackets, D forms with d. Residues, ends and D or L forms follow the SMILES beside them. ξ: configuration not given here. *: point of attachment. Cbz = O=C(OCc1ccccc1)*; ξK = NCCCCC(N)C(=O)O
Return exactly one item of True = active, False = inactive

Asked: Could you kindly confirm the outcome this assay logged for `COc1ccc(SCc2cc(OCc3ccccc3)c(OCc3ccccc3)c(OCc3ccccc3)c2)cc1` ?
Given back: False

Asked: Could you kindly confirm the outcome this assay logged for `NC(=O)C1=NNc2ccccc2C(=O)N1c1ccccc1` ?
Given back: False

Asked: Could you kindly confirm the outcome this assay logged for `CC(C)(Cc1ccccc1)N1C(=O)N1C(C)(C)Cc1ccccc1` ?
Given back: False

Asked: Could you kindly confirm the outcome this assay logged for `O=C1C(c2c(O)[nH]c3ccc(Br)cc23)=Nc2ccccc21` ?
Given back: False

Asked: Could you kindly confirm the outcome this assay logged for `COC(=O)C1=C(C(=O)OC)C2(c3ccccc3)OC1(c1ccccc1)c1cc3ccccc3cc12` ?
Given back: False

Asked: Could you kindly confirm the outcome this assay logged for `CC(=O)O[C@H]1CC[C@@]2(C)C(=CC[C@@H]3[C@@H]2CC[C@]2(C)Nc4c(cnn4S(C)(=O)=O)C[C@@H]32)C1` ?
Given back: False

Asked: Could you kindly confirm the outcome this assay logged for `Cc1c(NC(=O)c2cc([N+](=O)[O-])cc([N+](=O)[O-])c2)c(=O)n(-c2ccccc2)n1C` ?
Given back: False

Asked: Could you kindly confirm the outcome this assay logged for `Cc1ccc(-c2nc(N/N=C/C=C/c3ccccc3)c3ccccc3n2)cc1` ?
Given back: False

Asked: Could you kindly confirm the outcome this assay logged for `O=C1NC(=O)/C(=C\c2ccncc2)N1` ?
Given back: False

Asked: Could you kindly confirm the outcome this assay logged for `O=Cc1cn(CCCCCn2cc(C=O)c3ccccc32)c2ccccc12` ?
Given back: False

Asked: Could you kindly confirm the outcome this assay logged for `O=C(C/N=C(\CN(c1ccccc1)c1ccccc1)Oc1ccc(Cl)cc1Cl)n1ccnc1` ?
Given back: False

Asked: Could you kindly confirm the outcome this assay logged for `COC(=O)/C=C/c1ccc(OP(=O)(O)O)c(OC)c1` ?
Given back: False

Asked: Could you kindly confirm the outcome this assay logged for COc1ccc(CC(O)CN2CCOCC2)cc1 (stereo unspecified) ?
Given back: False

Asked: Could you kindly confirm the outcome this assay logged for CCOP(=O)(O)C(Nc1ccc(/N=N/c2ccccc2)cc1)c1ccc(C(Nc2ccc(/N=N/c3ccccc3)cc2)P(=O)(O)OCC)cc1 (stereo unspecified) ?
Given back: False

Asked: Could you kindly confirm the outcome this assay logged for Cn1c2c(c3ccccc31)CCN=C2C1CCCOC1=O (stereo unspecified) ?
Given back: False

Asked: Could you kindly confirm the outcome this assay logged for CC(=O)O[C@H]1C(=O)[C@@]2(C)C([C@H](OC(=O)c3ccccc3)[C@]3(O)C[C@H](OC(=O)[C@H](O)[C@H](NC(=O)c4ccccc4)c4ccc(Cl)cc4)C(C)=C1C3(C)C)C1(OC(C)=O)CO[C@@H]1C[C@@H]2O (stereo partly specified) ?
Given back: True

Asked: Could you kindly confirm the outcome this assay logged for COC(=O)C(Cc1cn(C(C)n2cc(CC(NC(C)=O)C(=O)OC)c3ccccc32)c2ccccc12)NC(C)=O (stereo unspecified) ?
Given back: False

Asked: Could you kindly confirm the outcome this assay logged for CC1(C)OC2OC(COC(=O)C=[N+]=[N-])C3OC(C)(C)OC3C2O1 (stereo unspecified) ?
Given back: False

Asked: Could you kindly confirm the outcome this assay logged for `c1ccc(/N=C2\C(=N/c3ccccc3)N(C3CCCCC3)/C(=N\C3CCCCC3)N2c2ccccc2)cc1` ?
Given back: False

Asked: Could you kindly confirm the outcome this assay logged for `Cn1nc(S(N)(=O)=O)s/c1=N/C(N)=S` ?
Given back: False

Asked: Could you kindly confirm the outcome this assay logged for `COc1cc(O)c(C(=O)/C=C/c2ccccc2)c(OC)c1` ?
Given back: False

Asked: Could you kindly confirm the outcome this assay logged for Nc1ncnc2c1ncn2C1CCC(CO)O1 (stereo unspecified) ?
Given back: False

Asked: Could you kindly confirm the outcome this assay logged for `Nc1nc(N)c(-c2cccc(C(F)(F)F)c2)c(Cc2cccc(C(F)(F)F)c2)n1` ?
Given back: False

Asked: Could you kindly confirm the outcome this assay logged for CC(NC(=O)C(NC(=O)C(NC(=O)C(F)(F)F)C(C)C)C(C)C)C(=O)Oc1c(Cl)c(Cl)c(Cl)c(Cl)c1Cl (stereo unspecified) ?
Given back: False

Asked: Could you kindly confirm the outcome this assay logged for NCCCCC(NC(=O)OCc1ccccc1)C(=O)NCC(N)=O (stereo unspecified) (Cbz-[ξK]-Gly-NH2) ?
Given back: False

Asked: Could you kindly confirm the outcome this assay logged for `CC(=O)c1ccc(/N=N/N2CCCC2)cc1` ?
Given back: False

Asked: Could you kindly confirm the outcome this assay logged for `Nc1nncc2[nH]cnc12` ?
Given back: False

Asked: Could you kindly confirm the outcome this assay logged for `CN(/N=C/c1ccnc2ccccc12)c1ccc(Cl)cc1[N+](=O)[O-]` ?
Given back: False

Asked: Could you kindly confirm the outcome this assay logged for `Nc1ccc2c(c1)C(=O)c1ccccc1-2` ?
Given back: False

Asked: Could you kindly confirm the outcome this assay logged for `O=C1/C(=C/c2ccccc2)CN(C(=O)CCN2CCCC2)C/C1=C\c1ccccc1` ?
Given back: False

Asked: Could you kindly confirm the outcome this assay logged for `Cc1cc(-c2ccc(C(=O)C(Cl)(Cl)Cl)[nH]2)on1` ?
Given back: False

Asked: Could you kindly confirm the outcome this assay logged for Nc1nc(=O)[nH]c2c1cnn2C1CCCCO1 (stereo unspecified) ?
Given back: False

Asked: Could you kindly confirm the outcome this assay logged for `Fc1cc(F)c(F)c(S)c1F` ?
Given back: False

Asked: Could you kindly confirm the outcome this assay logged for COc1ccc2c(c1OC)C(=O)N1C2=Cc2c(cc3c(c2OC)OCO3)CC1N(C)C (stereo unspecified) ?
Given back: False

Asked: Could you kindly confirm the outcome this assay logged for C=C[C@]1(C)CC[C@]2(C)C(CC[C@@]3(C)C2C[C@H](O)[C@H](O)[C@@]3(C)O)C1 (stereo partly specified) ?
Given back: False

Asked: Could you kindly confirm the outcome this assay logged for CN(C)CCCNc1ncnc2c1ncn2C1OC(CO)C(O)C1O (stereo unspecified) ?
Given back: False

Asked: Could you kindly confirm the outcome this assay logged for COC(=O)C1Cc2c([nH]c3ccccc23)C(c2cccc(O)c2)N1 (stereo unspecified) ?
Given back: False

Asked: Could you kindly confirm the outcome this assay logged for CCOC(=O)CC1c2ccc(O)cc2OC(=O)C1c1ccc(N)cc1 (stereo unspecified) ?
Given back: False

Asked: Could you kindly confirm the outcome this assay logged for C#CCC1(C(=O)OCC)C(=O)c2ccccc2N(C)C1=O (stereo unspecified) ?
Given back: False

Asked: Could you kindly confirm the outcome this assay logged for OCCCCCCCCCCCOc1ccc(C2OCC3(CC=CCC3)CO2)cc1 (stereo unspecified) ?
Given back: False

Asked: Could you kindly confirm the outcome this assay logged for `COc1cc2c(cc1OCCCN1CCOCC1)N=C[C@@H]1CCCN1C2=O` ?
Given back: False

Data provenance is ChEMBL document CHEMBL1201862.
